Target: UBE2B
Assay: reporter assay of Huesken 2005
Conditions: siRNA
Oligonucleotides are written 5' to 3', each unit as a sugar letter and its base; * is a phosphorothioate linkage, no mark a phosphodiester; rarer units and linkages stand in square brackets, end groups in braces. Plain capitals give the bases only. d = 2'-deoxy (DNA); r = 2'-OH (RNA)
Record Fulfilled whenever normalised inhibition (eCFP-eYFP dual reporter) is at 80% or higher; record Not fulfilled when lower.

As a guide, the following entries are already answered.
sense rArArUrCrGrArUrGrGrArGrUrCrCrArArCrArUdTdT / antisense rArUrGrUrUrGrGrArCrUrCrCrArUrCrGrArUrUdCdT: Not fulfilled
sense rGrArGrArArUrArUrGrArGrArArArArGrArGrUdTdT / antisense rArCrUrCrUrUrUrUrCrUrCrArUrArUrUrCrUrCdGdT: Fulfilled
sense rCrGrArGrArArUrArUrGrArGrArArArArGrArGdTdT / antisense rCrUrCrUrUrUrUrCrUrCrArUrArUrUrCrUrCrGdTdT: Not fulfilled
sense rGrArGrArArArArGrArGrUrUrUrCrGrGrCrCrAdTdT / antisense rUrGrGrCrCrGrArArArCrUrCrUrUrUrUrCrUrCdAdT: Fulfilled
sense rArUrArGrCrCrArGrGrCrArGrCrArCrArGrCrUdTdT / antisense rArGrCrUrGrUrGrCrUrGrCrCrUrGrGrCrUrArUdTdG: Not fulfilled

Let us examine a further case.
Could you please find out whether sense rArUrArUrGrArGrArArArArGrArGrUrUrUrCrGdTdT / antisense rCrGrArArArCrUrCrUrUrUrUrCrUrCrArUrArUdTdC has normalised inhibition (eCFP-eYFP dual reporter) that meets 80% or exceeds it? Not fulfilled

====

Target: RHOQ
Test: reporter assay of Huesken 2005
Conditions: siRNA
Oligonucleotides are written 5' to 3', each unit as a sugar letter and its base; * is a phosphorothioate linkage, no mark a phosphodiester; rarer units and linkages stand in square brackets, end groups in braces. Plain capitals give the bases only. d = 2'-deoxy (DNA); r = 2'-OH (RNA)
VALUE TYPE: normalised inhibition (eCFP-eYFP dual reporter) (%)
Write the value in % as a bare number.

Here is how some substances turned out for normalised inhibition (eCFP-eYFP dual reporter).
sense rArUrArArArArUrUrGrArArArGrGrArArUrUrGdTdT / antisense rCrArArUrUrCrCrUrUrUrCrArArUrUrUrUrArUdCdT: 36.4
sense rUrUrArArUrUrCrArCrArUrGrArCrUrUrGrArGdTdT / antisense rCrUrCrArArGrUrCrArUrGrUrGrArArUrUrArAdCdA: 54.4

Let's switch to this substance now.
Param item = sense rUrArUrGrCrUrCrArArArUrGrGrArArUrCrUrUdTdT / antisense rArArGrArUrUrCrCrArUrUrUrGrArGrCrArUrAdCdA ; retrieve measured normalised inhibition (eCFP-eYFP dual reporter). 54.7

====

# normalised inhibition (eCFP-eYFP dual reporter) per record follows
Target: MRFAP1
Test: reporter assay of Huesken 2005
Conditions: siRNA
Oligonucleotides are written 5' to 3', each unit as a sugar letter and its base; * is a phosphorothioate linkage, no mark a phosphodiester; rarer units and linkages stand in square brackets, end groups in braces. Plain capitals give the bases only. d = 2'-deoxy (DNA); r = 2'-OH (RNA)
Write the value in % as a bare number.

Here is how some substances turned out for normalised inhibition (eCFP-eYFP dual reporter).
sense rGrArArArCrCrArGrArGrArGrCrCrUrUrUrGrUdTdT / antisense rArCrArArArGrGrCrUrCrUrCrUrGrGrUrUrUrCdAdG: 86
sense rCrGrGrCrGrGrArArGrUrUrUrUrGrArArGrArCdTdT / antisense rGrUrCrUrUrCrArArArArCrUrUrCrCrGrCrCrGdCdT: 94.8
sense rCrCrCrCrUrCrUrGrUrCrUrUrCrArCrUrCrUrGdTdT / antisense rCrArGrArGrUrGrArArGrArCrArGrArGrGrGrGdAdA: 87.5
sense rCrGrGrArArCrCrCrGrGrUrArUrGrGrGrArGrAdTdT / antisense rUrCrUrCrCrCrArUrArCrCrGrGrGrUrUrCrCrGdTdT: 49.8
sense rGrArGrArUrGrCrUrGrGrUrGrCrArGrCrUrCrGdTdT / antisense rCrGrArGrCrUrGrCrArCrCrArGrCrArUrCrUrCdGdG: 32.2
sense rCrArArGrUrUrGrGrUrArUrCrCrCrCrArUrArUdTdT / antisense rArUrArUrGrGrGrGrArUrArCrCrArArCrUrUrGdTdA: 62.5
sense rArArArUrArArCrUrUrUrGrArUrUrUrGrGrArAdTdT / antisense rUrUrCrCrArArArUrCrArArArGrUrUrArUrUrUdTdC: 70.2
sense rGrCrUrCrUrUrUrCrUrUrGrGrGrUrGrArCrCrUdTdT / antisense rArGrGrUrCrArCrCrCrArArGrArArArGrArGrCdAdA: 95.8

Param item = sense rGrUrArGrUrCrArArGrCrUrArUrArArArUrGrUdTdT / antisense rArCrArUrUrUrArUrArGrCrUrUrGrArCrUrArCdAdT ; retrieve measured normalised inhibition (eCFP-eYFP dual reporter). 88.3

Param item = sense rArGrArGrGrCrCrUrCrUrGrArGrGrArGrArGrCdTdT / antisense rGrCrUrCrUrCrCrUrCrArGrArGrGrCrCrUrCrUdAdC ; retrieve measured normalised inhibition (eCFP-eYFP dual reporter). 69.3

Param item = sense rArArCrUrUrUrGrArUrUrUrGrGrArArArArUrGdTdT / antisense rCrArUrUrUrUrCrCrArArArUrCrArArArGrUrUdAdT ; retrieve measured normalised inhibition (eCFP-eYFP dual reporter). 50.3

Param item = sense rGrCrArArArGrCrArGrCrGrGrArGrArUrGrCrGdTdT / antisense rCrGrCrArUrCrUrCrCrGrCrUrGrCrUrUrUrGrCdTdT ; retrieve measured normalised inhibition (eCFP-eYFP dual reporter). 74.8

====

Target: Mmp7 (rat)
Assay: reporter assay of Huesken 2005
Details: siRNA
Oligonucleotides are given in HELM: sugar(base)linkage, 5' to 3'; d 2'-deoxyribose, r ribose, m 2'-O-methylribose, p phosphate. ss, as = sense and antisense strand
# normalised inhibition (eCFP-eYFP dual reporter) per record follows
Could you write the number and then its unit?

RNA1{r(G)p.r(G)p.r(A)p.r(G)p.r(U)p.r(A)p.r(U)p.r(G)p.r(C)p.r(A)p.r(A)p.r(A)p.r(U)p.r(C)p.r(C)p.r(C)p.r(A)p.r(C)p.r(U)p.d(T)p.d(T)}|RNA2{r(A)p.r(G)p.r(U)p.r(G)p.r(G)p.r(G)p.r(A)p.r(U)p.r(U)p.r(U)p.r(G)p.r(C)p.r(A)p.r(U)p.r(A)p.r(C)p.r(U)p.r(C)p.r(C)p.d(A)p.d(C)}$$$RNA1{StrandType:ss}|RNA2{StrandType:as}$: 96.7%

Let's switch to this substance now.
Param item = RNA1{r(U)p.r(U)p.r(U)p.r(A)p.r(C)p.r(C)p.r(U)p.r(U)p.r(C)p.r(A)p.r(C)p.r(G)p.r(A)p.r(C)p.r(U)p.r(C)p.r(U)p.r(A)p.r(A)p.d(T)p.d(T)}|RNA2{r(U)p.r(U)p.r(A)p.r(G)p.r(A)p.r(G)p.r(U)p.r(C)p.r(G)p.r(U)p.r(G)p.r(A)p.r(A)p.r(G)p.r(G)p.r(U)p.r(A)p.r(A)p.r(A)p.d(A)p.d(T)}$$$RNA1{StrandType:ss}|RNA2{StrandType:as}$ ; retrieve measured normalised inhibition (eCFP-eYFP dual reporter). 110%

====

Molecular target: TMEM63B
Assay: reporter assay of Huesken 2005
Conditions: siRNA
Oligonucleotides are given in HELM: sugar(base)linkage, 5' to 3'; d 2'-deoxyribose, r ribose, m 2'-O-methylribose, p phosphate. ss, as = sense and antisense strand
Record rule met whenever normalised inhibition (eCFP-eYFP dual reporter) is at 70% or higher; record rule not met when lower.

As a guide, the following entries are already answered.
RNA1{r(U)p.r(G)p.r(G)p.r(G)p.r(A)p.r(G)p.r(A)p.r(A)p.r(C)p.r(C)p.r(A)p.r(C)p.r(C)p.r(A)p.r(U)p.r(U)p.r(G)p.r(C)p.r(C)p.d(T)p.d(T)}|RNA2{r(G)p.r(G)p.r(C)p.r(A)p.r(A)p.r(U)p.r(G)p.r(G)p.r(U)p.r(G)p.r(G)p.r(U)p.r(U)p.r(C)p.r(U)p.r(C)p.r(C)p.r(C)p.r(A)p.d(A)p.d(A)}$$$RNA1{StrandType:ss}|RNA2{StrandType:as}$: rule not met
RNA1{r(C)p.r(G)p.r(G)p.r(C)p.r(C)p.r(G)p.r(C)p.r(C)p.r(G)p.r(A)p.r(G)p.r(A)p.r(G)p.r(G)p.r(C)p.r(G)p.r(C)p.r(A)p.r(A)p.d(T)p.d(T)}|RNA2{r(U)p.r(U)p.r(G)p.r(C)p.r(G)p.r(C)p.r(C)p.r(U)p.r(C)p.r(U)p.r(C)p.r(G)p.r(G)p.r(C)p.r(G)p.r(G)p.r(C)p.r(C)p.r(G)p.d(A)p.d(G)}$$$RNA1{StrandType:ss}|RNA2{StrandType:as}$: rule met
RNA1{r(G)p.r(C)p.r(A)p.r(A)p.r(C)p.r(G)p.r(U)p.r(G)p.r(A)p.r(A)p.r(G)p.r(C)p.r(G)p.r(G)p.r(C)p.r(A)p.r(U)p.r(C)p.r(A)p.d(T)p.d(T)}|RNA2{r(U)p.r(G)p.r(A)p.r(U)p.r(G)p.r(C)p.r(C)p.r(G)p.r(C)p.r(U)p.r(U)p.r(C)p.r(A)p.r(C)p.r(G)p.r(U)p.r(U)p.r(G)p.r(C)p.d(G)p.d(C)}$$$RNA1{StrandType:ss}|RNA2{StrandType:as}$: rule met
RNA1{r(A)p.r(C)p.r(U)p.r(U)p.r(G)p.r(A)p.r(A)p.r(A)p.r(U)p.r(C)p.r(A)p.r(G)p.r(G)p.r(G)p.r(A)p.r(A)p.r(C)p.r(A)p.r(A)p.d(T)p.d(T)}|RNA2{r(U)p.r(U)p.r(G)p.r(U)p.r(U)p.r(C)p.r(C)p.r(C)p.r(U)p.r(G)p.r(A)p.r(U)p.r(U)p.r(U)p.r(C)p.r(A)p.r(A)p.r(G)p.r(U)p.d(T)p.d(G)}$$$RNA1{StrandType:ss}|RNA2{StrandType:as}$: rule not met
RNA1{r(G)p.r(G)p.r(U)p.r(G)p.r(G)p.r(C)p.r(C)p.r(G)p.r(C)p.r(G)p.r(C)p.r(C)p.r(C)p.r(A)p.r(U)p.r(C)p.r(C)p.r(U)p.r(C)p.d(T)p.d(T)}|RNA2{r(G)p.r(A)p.r(G)p.r(G)p.r(A)p.r(U)p.r(G)p.r(G)p.r(G)p.r(C)p.r(G)p.r(C)p.r(G)p.r(G)p.r(C)p.r(C)p.r(A)p.r(C)p.r(C)p.d(A)p.d(C)}$$$RNA1{StrandType:ss}|RNA2{StrandType:as}$: rule not met

Could you please find out whether RNA1{r(G)p.r(C)p.r(U)p.r(G)p.r(C)p.r(U)p.r(G)p.r(A)p.r(A)p.r(G)p.r(C)p.r(A)p.r(C)p.r(C)p.r(U)p.r(G)p.r(G)p.r(U)p.r(A)p.d(T)p.d(T)}|RNA2{r(U)p.r(A)p.r(C)p.r(C)p.r(A)p.r(G)p.r(G)p.r(U)p.r(G)p.r(C)p.r(U)p.r(U)p.r(C)p.r(A)p.r(G)p.r(C)p.r(A)p.r(G)p.r(C)p.d(A)p.d(T)}$$$RNA1{StrandType:ss}|RNA2{StrandType:as}$ has normalised inhibition (eCFP-eYFP dual reporter) that meets 70% or exceeds it? rule met

Could you please find out whether RNA1{r(U)p.r(C)p.r(A)p.r(U)p.r(G)p.r(A)p.r(C)p.r(C)p.r(U)p.r(A)p.r(C)p.r(A)p.r(G)p.r(U)p.r(A)p.r(U)p.r(C)p.r(A)p.r(C)p.d(T)p.d(T)}|RNA2{r(G)p.r(U)p.r(G)p.r(A)p.r(U)p.r(A)p.r(C)p.r(U)p.r(G)p.r(U)p.r(A)p.r(G)p.r(G)p.r(U)p.r(C)p.r(A)p.r(U)p.r(G)p.r(A)p.d(C)p.d(C)}$$$RNA1{StrandType:ss}|RNA2{StrandType:as}$ has normalised inhibition (eCFP-eYFP dual reporter) that meets 70% or exceeds it? rule not met

Could you please find out whether RNA1{r(G)p.r(G)p.r(A)p.r(U)p.r(G)p.r(A)p.r(U)p.r(G)p.r(A)p.r(G)p.r(A)p.r(U)p.r(C)p.r(C)p.r(G)p.r(G)p.r(G)p.r(A)p.r(C)p.d(T)p.d(T)}|RNA2{r(G)p.r(U)p.r(C)p.r(C)p.r(C)p.r(G)p.r(G)p.r(A)p.r(U)p.r(C)p.r(U)p.r(C)p.r(A)p.r(U)p.r(C)p.r(A)p.r(U)p.r(C)p.r(C)p.d(T)p.d(T)}$$$RNA1{StrandType:ss}|RNA2{StrandType:as}$ has normalised inhibition (eCFP-eYFP dual reporter) that meets 70% or exceeds it? rule met

Could you please find out whether RNA1{r(C)p.r(U)p.r(G)p.r(U)p.r(G)p.r(G)p.r(A)p.r(C)p.r(C)p.r(C)p.r(C)p.r(A)p.r(G)p.r(A)p.r(A)p.r(G)p.r(C)p.r(A)p.r(A)p.d(T)p.d(T)}|RNA2{r(U)p.r(U)p.r(G)p.r(C)p.r(U)p.r(U)p.r(C)p.r(U)p.r(G)p.r(G)p.r(G)p.r(G)p.r(U)p.r(C)p.r(C)p.r(A)p.r(C)p.r(A)p.r(G)p.d(T)p.d(A)}$$$RNA1{StrandType:ss}|RNA2{StrandType:as}$ has normalised inhibition (eCFP-eYFP dual reporter) that meets 70% or exceeds it? rule met
